Reported Fa by item:
Assay: Drug absorption in human intestine
// return numeric value only (unit: %, not printed)

[[record]]
molecule = "C#CCN(Cc1ccc(O)c2ncccc12)C(C#N)CCC1CCN(Cc2ccccc2)CC1 (racemic)"
endpoint_result = 97


*Q* Fill in reported Fa for this entry: C#CCN(Cc1ccc(O)c2ncccc12)C(C#N)CC1CCN(Cc2ccccc2)CC1 (racemic)
*A* 96.9

*Q* // fetch Fa given entry C#CCN(Cc1ccc(O)c2ncccc12)C1CCN(Cc2ccccc2)CC1
*A* 96.8

*Q* Check the records and state Fa for C#CCN(C)Cc1ccc(O)c2ncccc12
*A* 95.9

*Q* Return reported Fa. Input molecule: C#CCN(CCCC1CCN(Cc2ccccc2)CC1)Cc1ccc(O)c2ncccc12
*A* 96.9
